B1: TPR 5TU (parent)
chain: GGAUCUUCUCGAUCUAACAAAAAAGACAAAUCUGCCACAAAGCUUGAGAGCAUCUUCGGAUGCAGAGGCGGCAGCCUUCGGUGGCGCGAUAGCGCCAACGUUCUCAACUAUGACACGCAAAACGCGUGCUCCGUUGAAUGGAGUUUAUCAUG

variants of: B1; assay: polymerase ribozyme fitness, log enrichment relative to wild type (log ratio); higher = more active; in vitro selection for triplet polymerase activity
Variants at the floor of the assay were thinned out.
Think of -3 as a floor: if polymerase ribozyme fitness (log ratio) stands on it or above, it is satisfied; beneath it, not satisfied.

Here's what some known entries look like.
> print(dat)
                 variant.descriptor  discrete.label
 1             A22C A41C G50A A115G   not satisfied
 2           A91U U104A G141A U148A   not satisfied
 3       C43A U44A A91U G141U A150C   not satisfied
 4              A21C U45A A64G G92A   not satisfied
 5                        G62A C93A       satisfied
 6  A26G A66U C85A C95A G124C C131A   not satisfied
 7        C57A U61G U78G G88A U148A   not satisfied
 8           G94U C123G G141A U146C       satisfied
 9   U6A C14G G34A C87U C105U U145G   not satisfied
10                         C8U A52G   not satisfied

Answer whether polymerase ribozyme fitness (log ratio) of A22U A29C A47G U134C U139A is greater than or equal to -3.
not satisfied

Does the reported polymerase ribozyme fitness (log ratio) for U13G C36A G83U C99A G140U fall at or above the -3 mark?
not satisfied

For this variant, is measured polymerase ribozyme fitness (log ratio) -3 or higher? A17U A22U U44A G83C C131U
not satisfied

Check the entry A28C U33G U77C U90G C93A U148C G152A : does polymerase ribozyme fitness (log ratio) equal or exceed -3?
not satisfied
